Where these numbers come from: PubChem BioAssay (NCI)

- Test system: OVCAR-5 ovarian
- experiment: NCI-60 one-dose screen, 48 h (100 = growth as untreated, 0 = no growth, -100 = all killed)
- test.context: 10 µM unless noted
Compounds without any hit were thinned out: in the full panel of roughly 83,000, 20% have a hit.
# reported growth; entries follow
Give your result in % as a bare value.

As a guide, the following entries are already answered.
What value of growth on OVCAR-5 ovarian does `CC1(C)CC2=C3C=C[C@@H]4[C@@]5(C)CCC(=O)C(C)(C)[C@@H]5CC[C@@]4(C)[C@]3(C)CC[C@@]2(C(=O)O)CC1=O` have?
93.2

What value of growth on OVCAR-5 ovarian does `O=[N+]([O-])c1ccc(-c2nc(N3CCOCC3)c3c4c(sc3n2)CCCC4)cc1` have?
95.4

Switching to the query record.
What value of growth on OVCAR-5 ovarian does `N#C/C(=C\c1ccc2ccccc2c1)c1cc2ccccc2[nH]1` have?
61.2

###

- Test system: HS 578T breast
- experiment: NCI-60 one-dose screen, 48 h (100 = growth as untreated, 0 = no growth, -100 = all killed)
- test.context: 10 µM unless noted
About 83,000 compounds went through this panel and 20% of them were active in at least one assay; those are over-represented in the sample as a whole.
# reported growth; entries follow
Give your result in % as a bare value.

Need growth, item `O=C(Cn1c(=O)sc2nc3ccccc3nc21)Nc1ncc(Cc2cccc(Cl)c2Cl)s1`
90.2

Need growth, item `Cn1ccc2c3c(ccc21)CC3=O`
121

Need growth, item `CCOC(=O)c1cn2ncnc(Oc3ccc(NC(=O)NC4CCCCC4)c(Cl)c3)c2c1C`
36.1

Need growth, item `O=C(Nc1ccc(-c2nc(N3CCOCC3)c3cccn3n2)cc1)Nc1cccnc1`
-32.3

Need growth, item `COc1cc(-c2nc(SCC(C)C)nc(Nc3cccc4ccccc34)c2C#N)cc(OC)c1OC`
106

Need growth, item `N#Cc1cccc(F)c1`
107

Further cases:
Need growth, item `CNC(=O)c1cc(Oc2ccc3c(c2)sc2nc(-c4cc(OC)c(OC)c(OC)c4)cn23)ccn1`
70.2

Need growth, item `Cc1c(-c2nc3ccc(F)cc3c(=O)[nH]2)c2ccccc2n1C`
3.2

Need growth, item `COc1ccc2c3c([nH]c2c1)C(=O)c1nc(C)ccc1C3=O`
84.9

Need growth, item `O=[N+]([O-])/C(=C/C=C/c1ccccc1)c1ccccc1`
56.8

###

# reported growth; entries follow
- Test system: BT-549 breast
- experiment: NCI-60 one-dose screen, 48 h (100 = growth as untreated, 0 = no growth, -100 = all killed)
- test.context: 10 µM unless noted
About 83,000 compounds went through this panel and 20% of them were active in at least one assay; those are over-represented in the sample as a whole. Calls of active or inactive are those of the source. How the source made its calls: active means growth percent below 10; inactive means the rest.

What value of growth on BT-549 breast does `Cc1ccc(-c2nc3nc(-c4ccc(F)cc4)nc(N4CCNCC4)c3o2)cc1` have?
99.5% (inactive)

What value of growth on BT-549 breast does `N#Cc1nn(-c2cc(=O)[nH]c3ccc(Cl)cc23)c(N)c1C#N` have?
87.9% (inactive)

###

- Tested on: SF-539 CNS
- experiment: NCI-60 one-dose screen, 48 h (100 = growth as untreated, 0 = no growth, -100 = all killed)
- test.context: 10 µM unless noted
About 83,000 compounds went through this panel and 20% of them were active in at least one assay; those are over-represented in the sample as a whole.
measured.attribute: growth (%)
Give your result in % as a bare value.

As a guide, the following entries are already answered.
Need growth, item `CCOC(=O)/C=C1\S/C(=N\Nc2cc(=O)[nH]c3ccc(Cl)cc23)N(c2ccccc2)C1=O`
99.6

Need growth, item `O=C(NCCCN1CCOCC1)c1cccc(N2C(=O)/C(=C/c3ccc(F)cc3)SC2=S)c1`
90.6

Need growth, item `COc1cccc(/C=C/C(=O)c2cc3c(N)c(C(=O)Nc4ccccc4)sc3nc2C)c1`
-16

Need growth, item `CCN1CC(=O)N(/N=C2\C(=O)Nc3ccccc32)C1=S`
94.1

Further cases:
Need growth, item `CS(=O)(=O)Nc1cc(-c2ccc3ncnc(Nc4ccc5c(cnn5Cc5ccccn5)c4)c3c2)cnc1Cl`
69.9

###

- Tested on: SK-MEL-2 melanoma
- experiment: NCI-60 one-dose screen, 48 h (100 = growth as untreated, 0 = no growth, -100 = all killed)
- test.context: 10 µM unless noted
- Method: Growth inhibition of the SK-MEL-2 human tumor cell line is measured as a screen for anti-cancer activity. Cells are grown in 96 well plates and exposed to the test compound for 48 hours. Compounds are tested at a single concentration, which is 10^-5 M for most compounds. The reported endpoint is percent growth (GI% or GIPRCNT), where numbers from 0 - 100% represent growth inhibition, and numbers from -100% - 0 represent cell death. For example, a value of 40 represents 60% growth inhibition. […]
About 83,000 compounds went through this panel and 20% of them were active in at least one assay; those are over-represented in the sample as a whole. The source made the active and inactive calls. The calls were made as follows: active = growth percent below 10; inactive = the rest.
# reported growth; entries follow

Need growth, item `Brc1c2c(c(Br)c3ccccc13)CCCC2`
93.8% (inactive)

Need growth, item `COc1cc(-c2cc(-c3cccs3)c(C#N)c(N3CCOCC3)n2)cc(OC)c1OC`
95.6% (inactive)

Need growth, item CC1Cc2c(Cl)ncnc2N(C)c2ccc(F)cc21 (stereo unspecified)
110% (inactive)

Further cases:
Need growth, item `CCCCC(=O)Nc1ncc(Cc2ccc(Cl)cc2)s1`
90.4% (inactive)

Need growth, item `COc1cc(-c2csc(NC(=O)c3cc(-n4cnc(C)c4)cc(C(F)(F)F)c3)n2)cc(OC)c1OC`
67.6% (inactive)

Need growth, item `O=C1/C(=C/c2ccc(Cl)c(Cl)c2)CN(C(=O)C(Cl)Cl)C/C1=C\c1ccc(Cl)c(Cl)c1`
-3.03% (active)

Need growth, item `CC1=NN(c2nc(SCC(=O)Nc3nc4ccc(C)cc4s3)nc(-c3ccccc3)c2C#N)C(=O)C1`
111% (inactive)

Need growth, item `COc1ccc(OC)c(-c2c(C#N)c(-c3cccs3)nc3c2c(-c2ccccc2)nn3-c2ccccc2)c1`
107% (inactive)

Need growth, item `CC(C)=NNc1ccccn1`
83.2% (inactive)

Need growth, item `C#CCOc1cccc(Nc2ncnc3ccc(NC(=O)CCl)cc23)c1`
-47.9% (active)

Need growth, item COc1cc2c(c(OC)c1OC)CCC(c1cccc(C(=O)Nc3cccc(Br)c3)c1)O2 (stereo unspecified)
76.8% (inactive)

Need growth, item N#CC1=C(N)Oc2c(sc3c(F)cccc23)C1c1ccc(F)cc1 (stereo unspecified)
-4.03% (active)

Need growth, item `Cn1cc(-c2csc(-c3c[nH]c4ccc(Br)cc34)n2)c2cnccc21`
-65.7% (active)

Need growth, item `CN(C)c1ccc(Nc2cc(-c3cccc(OC(F)(F)F)c3)nc3ccc(N4CCCC4)cc23)cc1`
106% (inactive)

Need growth, item `COc1ccc(-c2nc3c(c(-c4ccccc4)nn3-c3ccccc3)c(-c3ccc(N4CCN(C)CC4)cc3)c2C#N)cc1`
106% (inactive)

Need growth, item `CCN1CCN(c2cc(C(=O)Nc3nc(-c4cc(OC)c(OC)c(OC)c4)cs3)cc(C(F)(F)F)c2)CC1`
81.4% (inactive)

Need growth, item `Cc1ccc(-c2nc3nc(-c4ccc(F)cc4)nc(N4CCNCC4)c3o2)cc1`
102% (inactive)

Need growth, item `COc1ccc(-c2nn(-c3ccccc3)cc2/C=C2/SC(=S)N(C)C2=O)cc1`
108% (inactive)

Need growth, item `CCn1c(SCC(=O)c2ccc(Br)cc2)nnc1-c1ccncc1`
104% (inactive)

Need growth, item `C#CCn1cnc2c(Nc3cccc(NC(=O)C=C)c3)ncnc21`
84.1% (inactive)

Need growth, item `CCOC(=O)C1=NN(c2ccccc2)C(=O)/C1=C\N1C(=O)CC(=O)NC1=S`
98% (inactive)

###

- System: SK-MEL-28 melanoma
- experiment: NCI-60 one-dose screen, 48 h (100 = growth as untreated, 0 = no growth, -100 = all killed)
- test.context: 10 µM unless noted
The panel holds about 83,000 compounds, 20% with a hit somewhere; the sample as a whole holds those more often.
# reported growth; entries follow
Give your result in % as a bare value.

As a guide, the following entries are already answered.
Need growth, item `CS(=O)(=O)C1=CN(CCO)C(=O)N2CCCN=C12`
104

Need growth, item `CN1CCN(Cc2ccc(NC(=O)c3cncc(C#Cc4cnc(N)c5ccccc45)c3)cc2C(F)(F)F)CC1`
-92.9

Need growth, item `Cc1ccc(-c2nc3nc(-c4ccc(F)cc4)nc(N4CCNCC4)c3o2)cc1`
114

Further cases:
Need growth, item `Cc1cc(=O)[nH]c2c(C#N)cnn12`
105

Need growth, item `O=c1oc2ccc([N+](=O)[O-])cc2cc1Br`
107

Need growth, item `COc1ccc(N2CCC(=O)NC2=S)cc1`
111
